- recorded conditions: in n-butanol, 298.17 K
measure name: solubility (mole fraction)

structure_smiles_string=CC(C)(Oc1ccc(CCNC(=O)c2ccc(Cl)cc2)cc1)C(=O)O readout_number=0.00403

* * *

- recorded conditions: in isobutanol, 308.22 K
measure name: solubility (mole fraction)

structure_smiles_string=CC(C)(Oc1ccc(CCNC(=O)c2ccc(Cl)cc2)cc1)C(=O)O readout_number=0.00396

* * *

- recorded conditions: in n-pentanol, 283.23 K
measure name: solubility (mole fraction)

structure_smiles_string=CC(C)(Oc1ccc(CCNC(=O)c2ccc(Cl)cc2)cc1)C(=O)O result=0.00233

* * *

- recorded conditions: in methanol, 298.17 K
measure name: solubility (mole fraction)

structure_smiles_string=CC(C)(Oc1ccc(CCNC(=O)c2ccc(Cl)cc2)cc1)C(=O)O measure_name="solubility (mole fraction)" readout_number=0.00333

* * *

- recorded conditions: in n-propyl acetate, 298.18 K
measure name: solubility (mole fraction)

structure_smiles_string=CC(C)(Oc1ccc(CCNC(=O)c2ccc(Cl)cc2)cc1)C(=O)O measure_name="solubility (mole fraction)" readout_number=0.000819

* * *

- recorded conditions: in ethyl acetate, 318.16 K
measure name: solubility (mole fraction)

structure_smiles_string=CC(C)(Oc1ccc(CCNC(=O)c2ccc(Cl)cc2)cc1)C(=O)O readout_number=0.0022

* * *

- recorded conditions: in methanol, 318.14 K
measure name: solubility (mole fraction)

structure_smiles_string=CC(C)(Oc1ccc(CCNC(=O)c2ccc(Cl)cc2)cc1)C(=O)O readout_number=0.00754

* * *

- recorded conditions: in isopentanol, 313.25 K
measure name: solubility (mole fraction)

structure_smiles_string=CC(C)(Oc1ccc(CCNC(=O)c2ccc(Cl)cc2)cc1)C(=O)O measure_name="solubility (mole fraction)" readout_number=0.00555

* * *

- recorded conditions: in n-pentanol, 313.08 K
measure name: solubility (mole fraction)

structure_smiles_string=CC(C)(Oc1ccc(CCNC(=O)c2ccc(Cl)cc2)cc1)C(=O)O measure_name="solubility (mole fraction)" readout_number=0.0072

* * *

- recorded conditions: in methyl propionate, 298.17 K
measure name: solubility (mole fraction)

structure_smiles_string=CC(C)(Oc1ccc(CCNC(=O)c2ccc(Cl)cc2)cc1)C(=O)O measure_name="solubility (mole fraction)" readout_number=0.000823

* * *

- recorded conditions: in n-propanol, 308.23 K
measure name: solubility (mole fraction)

structure_smiles_string=CC(C)(Oc1ccc(CCNC(=O)c2ccc(Cl)cc2)cc1)C(=O)O readout_number=0.00617

* * *

- recorded conditions: in n-butyl acetate, 313.14 K
measure name: solubility (mole fraction)

structure_smiles_string=CC(C)(Oc1ccc(CCNC(=O)c2ccc(Cl)cc2)cc1)C(=O)O measure_name="solubility (mole fraction)" readout_number=0.00113

* * *

- recorded conditions: in acetonitrile, 298.25 K
measure name: solubility (mole fraction)

structure_smiles_string=CC(C)(Oc1ccc(CCNC(=O)c2ccc(Cl)cc2)cc1)C(=O)O readout_number=0.000274

* * *

- recorded conditions: in ethyl acetate, 283.17 K
measure name: solubility (mole fraction)

structure_smiles_string=CC(C)(Oc1ccc(CCNC(=O)c2ccc(Cl)cc2)cc1)C(=O)O readout_number=0.000557

* * *

- recorded conditions: in n-pentanol, 308.02 K
measure name: solubility (mole fraction)

structure_smiles_string=CC(C)(Oc1ccc(CCNC(=O)c2ccc(Cl)cc2)cc1)C(=O)O measure_name="solubility (mole fraction)" readout_number=0.006

* * *

- recorded conditions: in 2-butanone, 288.16 K
measure name: solubility (mole fraction)

structure_smiles_string=CC(C)(Oc1ccc(CCNC(=O)c2ccc(Cl)cc2)cc1)C(=O)O measure_name="solubility (mole fraction)" readout_number=0.00227

* * *

- recorded conditions: in n-butanol, 283.16 K
measure name: solubility (mole fraction)

structure_smiles_string=CC(C)(Oc1ccc(CCNC(=O)c2ccc(Cl)cc2)cc1)C(=O)O measure_name="solubility (mole fraction)" readout_number=0.00227

* * *

- recorded conditions: in cyclohexanone, 298.14 K
measure name: solubility (mole fraction)

structure_smiles_string=CC(C)(Oc1ccc(CCNC(=O)c2ccc(Cl)cc2)cc1)C(=O)O measure_name="solubility (mole fraction)" readout_number=0.00891

* * *

- recorded conditions: in acetonitrile, 283.24 K
measure name: solubility (mole fraction)

structure_smiles_string=CC(C)(Oc1ccc(CCNC(=O)c2ccc(Cl)cc2)cc1)C(=O)O measure_name="solubility (mole fraction)" readout_number=0.000113

* * *

- recorded conditions: in n-butyl acetate, 283.17 K
measure name: solubility (mole fraction)

structure_smiles_string=CC(C)(Oc1ccc(CCNC(=O)c2ccc(Cl)cc2)cc1)C(=O)O readout_number=0.000327

* * *

- recorded conditions: in cyclohexanone, 303.27 K
measure name: solubility (mole fraction)

structure_smiles_string=CC(C)(Oc1ccc(CCNC(=O)c2ccc(Cl)cc2)cc1)C(=O)O readout_number=0.0107

* * *

- recorded conditions: in sec-butanol, 293.14 K
measure name: solubility (mole fraction)

structure_smiles_string=CC(C)(Oc1ccc(CCNC(=O)c2ccc(Cl)cc2)cc1)C(=O)O measure_name="solubility (mole fraction)" readout_number=0.00365

* * *

- recorded conditions: in methanol, 308.14 K
measure name: solubility (mole fraction)

structure_smiles_string=CC(C)(Oc1ccc(CCNC(=O)c2ccc(Cl)cc2)cc1)C(=O)O measure_name="solubility (mole fraction)" readout_number=0.00498

* * *

- recorded conditions: in isopentanol, 323.25 K
measure name: solubility (mole fraction)

structure_smiles_string=CC(C)(Oc1ccc(CCNC(=O)c2ccc(Cl)cc2)cc1)C(=O)O measure_name="solubility (mole fraction)" readout_number=0.00817

* * *

- recorded conditions: in cyclohexanone, 323.22 K
measure name: solubility (mole fraction)

structure_smiles_string=CC(C)(Oc1ccc(CCNC(=O)c2ccc(Cl)cc2)cc1)C(=O)O readout_number=0.0204

* * *

- recorded conditions: in n-propanol, 313.37 K
measure name: solubility (mole fraction)

structure_smiles_string=CC(C)(Oc1ccc(CCNC(=O)c2ccc(Cl)cc2)cc1)C(=O)O readout_number=0.00729

* * *

- recorded conditions: in isopentanol, 303.13 K
measure name: solubility (mole fraction)

structure_smiles_string=CC(C)(Oc1ccc(CCNC(=O)c2ccc(Cl)cc2)cc1)C(=O)O readout_number=0.00365

* * *

- recorded conditions: in 2-butanone, 313.16 K
measure name: solubility (mole fraction)

structure_smiles_string=CC(C)(Oc1ccc(CCNC(=O)c2ccc(Cl)cc2)cc1)C(=O)O measure_name="solubility (mole fraction)" readout_number=0.00505

* * *

- recorded conditions: in ethyl acetate, 298.14 K
measure name: solubility (mole fraction)

structure_smiles_string=CC(C)(Oc1ccc(CCNC(=O)c2ccc(Cl)cc2)cc1)C(=O)O measure_name="solubility (mole fraction)" readout_number=0.000994

* * *

- recorded conditions: in cyclohexanone, 288.19 K
measure name: solubility (mole fraction)

structure_smiles_string=CC(C)(Oc1ccc(CCNC(=O)c2ccc(Cl)cc2)cc1)C(=O)O measure_name="solubility (mole fraction)" readout_number=0.00605

* * *

- recorded conditions: in n-pentanol, 322.74 K
measure name: solubility (mole fraction)

structure_smiles_string=CC(C)(Oc1ccc(CCNC(=O)c2ccc(Cl)cc2)cc1)C(=O)O readout_number=0.0103

* * *

- recorded conditions: in cyclohexanone, 283.14 K
measure name: solubility (mole fraction)

structure_smiles_string=CC(C)(Oc1ccc(CCNC(=O)c2ccc(Cl)cc2)cc1)C(=O)O readout_number=0.00496

* * *

- recorded conditions: in cyclohexanone, 293.24 K
measure name: solubility (mole fraction)

structure_smiles_string=CC(C)(Oc1ccc(CCNC(=O)c2ccc(Cl)cc2)cc1)C(=O)O measure_name="solubility (mole fraction)" result=0.00732

* * *

- recorded conditions: in isopropanol, 318.22 K
measure name: solubility (mole fraction)

structure_smiles_string=CC(C)(Oc1ccc(CCNC(=O)c2ccc(Cl)cc2)cc1)C(=O)O readout_number=0.00705

* * *

- recorded conditions: in n-butanol, 313.17 K
measure name: solubility (mole fraction)

structure_smiles_string=CC(C)(Oc1ccc(CCNC(=O)c2ccc(Cl)cc2)cc1)C(=O)O readout_number=0.00728

* * *

- recorded conditions: in ethanol, 288.24 K
measure name: solubility (mole fraction)

structure_smiles_string=CC(C)(Oc1ccc(CCNC(=O)c2ccc(Cl)cc2)cc1)C(=O)O measure_name="solubility (mole fraction)" readout_number=0.00282

* * *

- recorded conditions: in n-butyl acetate, 298.14 K
measure name: solubility (mole fraction)

structure_smiles_string=CC(C)(Oc1ccc(CCNC(=O)c2ccc(Cl)cc2)cc1)C(=O)O result=0.000629

* * *

- recorded conditions: in n-pentanol, 293.29 K
measure name: solubility (mole fraction)

structure_smiles_string=CC(C)(Oc1ccc(CCNC(=O)c2ccc(Cl)cc2)cc1)C(=O)O readout_number=0.00344

* * *

- recorded conditions: in isopropanol, 288.14 K
measure name: solubility (mole fraction)

structure_smiles_string=CC(C)(Oc1ccc(CCNC(=O)c2ccc(Cl)cc2)cc1)C(=O)O result=0.00195

* * *

- recorded conditions: in isopropanol, 303.21 K
measure name: solubility (mole fraction)

structure_smiles_string=CC(C)(Oc1ccc(CCNC(=O)c2ccc(Cl)cc2)cc1)C(=O)O measure_name="solubility (mole fraction)" readout_number=0.00371
